molecular target: 5-hydroxytryptamine receptor 1D (Homo sapiens) (UniProt P28221); assay: The compound was tested for intrinsic activity against 5-HT1D receptor; settings: Oryctolagus cuniculus
Sequence (P28221 whole entry): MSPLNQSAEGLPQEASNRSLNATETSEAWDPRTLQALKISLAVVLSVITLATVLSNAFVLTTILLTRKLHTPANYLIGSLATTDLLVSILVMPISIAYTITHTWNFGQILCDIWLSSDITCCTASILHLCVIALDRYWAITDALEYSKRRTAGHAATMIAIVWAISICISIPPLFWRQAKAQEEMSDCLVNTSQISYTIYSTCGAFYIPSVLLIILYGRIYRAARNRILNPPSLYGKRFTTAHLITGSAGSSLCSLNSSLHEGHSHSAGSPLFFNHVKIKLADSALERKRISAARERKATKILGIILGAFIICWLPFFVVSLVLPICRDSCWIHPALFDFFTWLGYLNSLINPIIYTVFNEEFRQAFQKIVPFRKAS
Each entry below carries its recorded Intrinsic activity.

Here are 5 molecules together with their reported answers.
molecule: COC(=O)c1ccc(CC2NC(=O)N(CCc3ccc4[nH]cc(CCN)c4c3)C2=O)cc1 (stereo not given)
system-tested: 5-hydroxytryptamine receptor 1D (Homo sapiens) (UniProt P28221)
property-measured: Intrinsic activity
observed-measurement: 0.7
--
molecule: CN(C)CCc1c[nH]c2ccc(CCN3C(=O)NC(Cc4ccc(NS(C)(=O)=O)cc4)C3=O)cc12 (stereo not given)
system-tested: 5-hydroxytryptamine receptor 1D (Homo sapiens) (UniProt P28221)
property-measured: Intrinsic activity
observed-measurement: 0.6
--
molecule: NCCc1c[nH]c2ccccc12
system-tested: 5-hydroxytryptamine receptor 1D (Homo sapiens) (UniProt P28221)
property-measured: Intrinsic activity
observed-measurement: 0.86
--
molecule: Cc1ccc2[nH]cc(CCN)c2c1
system-tested: 5-hydroxytryptamine receptor 1D (Homo sapiens) (UniProt P28221)
property-measured: Intrinsic activity
observed-measurement: 1
--
molecule: NCCc1c[nH]c2ccc(CC3NC(=O)N(Cc4ccc(-c5ccccc5)cc4)C3=O)cc12 (stereo not given)
system-tested: 5-hydroxytryptamine receptor 1D (Homo sapiens) (UniProt P28221)
property-measured: Intrinsic activity
observed-measurement: 0.6

Task: Return reported Intrinsic activity; argument: NCCc1c[nH]c2ccc(CC3NC(=O)N(CCCc4ccccc4)C3=O)cc12 (stereo not given)
Output: 0.93

Task: Quick check: Intrinsic activity of COc1ccc2[nH]cc(C3=CCNCC3)c2c1 ?
Output: 0.89

Task: What value of measured Intrinsic activity is listed for CN(C)CCc1c[nH]c2ccc(CCN3C(=O)N[C@@H](Cc4ccc(NS(C)(=O)=O)cc4)C3=O)cc12 ?
Output: 0.6

Task: Could you share which Intrinsic activity value was measured for NCCc1c[nH]c2ccc(CC3NC(=O)N(Cc4cccc(NC(=O)c5ccccc5)c4)C3=O)cc12 (stereo not given) ?
Output: 0.85

Task: Item CN(C)CCc1c[nH]c2ccc(CCC3NC(=O)N(Cc4ccccc4)C3=O)cc12 (stereo not given) has what recorded Intrinsic activity?
Output: 0.2

----------
molecular target: D(1A) dopamine receptor (Rattus norvegicus); test: Binding affinity against dopamine receptor D1 in rat striatum using [3H]SCH-23390 as radioligand
Sequence (P18901 whole entry): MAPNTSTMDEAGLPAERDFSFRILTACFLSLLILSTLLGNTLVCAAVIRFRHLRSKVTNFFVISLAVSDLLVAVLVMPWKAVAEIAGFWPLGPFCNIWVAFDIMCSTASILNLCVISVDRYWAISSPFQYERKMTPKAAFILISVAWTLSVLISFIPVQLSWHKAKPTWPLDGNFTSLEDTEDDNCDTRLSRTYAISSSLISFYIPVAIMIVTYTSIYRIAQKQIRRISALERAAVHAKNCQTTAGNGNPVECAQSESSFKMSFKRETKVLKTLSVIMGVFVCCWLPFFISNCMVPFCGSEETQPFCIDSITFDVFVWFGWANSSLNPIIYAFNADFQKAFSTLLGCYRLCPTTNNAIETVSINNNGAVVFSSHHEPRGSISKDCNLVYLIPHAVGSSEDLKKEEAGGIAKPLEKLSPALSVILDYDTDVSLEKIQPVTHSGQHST
property-measured: pKd
// pKd is dimensionless: -log10 of concentration (M)

Task: Give recorded pKd with D(1A) dopamine receptor (Rattus norvegicus) for the following molecule: CN(C)CCc1c[nH]c2ccc(C[C@H]3COC(=O)N3)cc12 [ZOLMITRIPTAN]
Output: 9.52

----------
biological target: 5-hydroxytryptamine receptor 1D (Homo sapiens) (UniProt P28221); test: The compound was tested for binding affinity against 5-HT1D receptor; settings: Oryctolagus cuniculus
property-measured: p[A50]
Please reply with the value in numeric form only.

compound: O=C1CC2(CCCC2)CS(=O)(=O)N1CCCCN1CCN(c2ncccn2)CC1
p[A50]: 4.9

Task: Please report the recorded p[A50] for CN(C)CCc1c[nH]c2ccc(C[C@H]3CNC(=O)N3C)cc12 .
Output: 7

Task: Query (compound): NCCc1c[nH]c2ccc(CC3NC(=O)N(CCCc4ccccc4)C3=O)cc12 (stereo not given) ; field requested: p[A50]
Output: 6.6

Task: Param item = CN1C(=O)N(Cc2ccccc2)CC1Cc1ccc2[nH]cc(CCN)c2c1 (stereo not given) ; retrieve measured p[A50].
Output: 7.5

Task: I am curious: what p[A50] value has been reported for CN1C(=O)N(Cc2ccccc2)C(=O)C1Cc1ccc2[nH]cc(CCN)c2c1 (stereo not given) ?
Output: 6

----------
target: 5-hydroxytryptamine receptor 2A (Homo sapiens) (UniProt P28223); conditions: Oryctolagus cuniculus
Sequence (P28223 whole entry): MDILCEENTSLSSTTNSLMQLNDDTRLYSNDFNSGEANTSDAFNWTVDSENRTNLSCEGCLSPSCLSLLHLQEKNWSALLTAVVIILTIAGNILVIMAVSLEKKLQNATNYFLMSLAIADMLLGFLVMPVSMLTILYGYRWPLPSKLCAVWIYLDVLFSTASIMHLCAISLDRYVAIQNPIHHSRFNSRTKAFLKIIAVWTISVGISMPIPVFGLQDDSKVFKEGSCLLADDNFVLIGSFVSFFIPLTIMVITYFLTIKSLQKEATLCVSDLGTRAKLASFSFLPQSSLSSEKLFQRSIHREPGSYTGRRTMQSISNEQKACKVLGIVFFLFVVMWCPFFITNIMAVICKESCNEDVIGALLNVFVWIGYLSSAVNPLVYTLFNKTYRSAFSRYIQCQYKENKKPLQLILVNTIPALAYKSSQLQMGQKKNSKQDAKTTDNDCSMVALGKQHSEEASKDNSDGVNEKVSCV
Description: The compound was tested for binding affinity against 5-HT2A receptor
property-measured: p[A50]
# print the numeric value only

As a guide, the following entries are already answered.
compound: NCCc1c[nH]c2ccc(CC3NC(=O)N(CCc4ccccc4)C3=O)cc12 (centres undefined)
p[A50]: 4.5
//
compound: CCCNC(=O)c1cccc(CN2C(=O)NC(Cc3ccc4[nH]cc(CCN)c4c3)C2=O)c1 (centres undefined)
p[A50]: 4.5
//
compound: NCCc1c[nH]c2ccc(CC3NC(=O)N(Cc4cccc(C(=O)Nc5ccccc5)c4)C3=O)cc12 (centres undefined)
p[A50]: 3.9

Proceed to the following item.
Task: p[A50] for O=C(CCCN1CCC2(CC1)C(=O)NCN2c1ccccc1)c1ccc(F)cc1 ?
Output: 9.7

----------
target: 5-hydroxytryptamine receptor 1D (Homo sapiens); assay: The compound was tested for binding affinity against 5-HT1D receptor; conditions: Oryctolagus cuniculus
This listing pairs molecules with measured p[A50].
Reply with the value as a number alone.

molecule: CN(C)CCc1c[nH]c2ccc(CC3NC(=O)N(Cc4ccccc4)C3=O)cc12 (centres undefined)
system-tested: 5-hydroxytryptamine receptor 1D (Homo sapiens)
observed-measurement: 5.6

Task: State the recorded p[A50] for this entry: CNCCc1c[nH]c2ccc(CCN3C(=O)CNC3=O)cc12
Output: 6.7

Task: Recorded p[A50] for COC(=O)c1ccc(CC2NC(=O)N(CCc3ccc4[nH]cc(CCN)c4c3)C2=O)cc1 (centres undefined) , please?
Output: 7.3

Task: What measured p[A50] goes with O=C(CCCN1CCC2(CC1)C(=O)NCN2c1ccccc1)c1ccc(F)cc1 ?
Output: 5.8

----------
biological target: D(2) dopamine receptor (Rattus norvegicus, UniProt P61169); assay: Binding affinity against Dopamine receptor D2 in rat striatum using [3H]-spiperone as radioligand
Sequence (P61169 whole entry): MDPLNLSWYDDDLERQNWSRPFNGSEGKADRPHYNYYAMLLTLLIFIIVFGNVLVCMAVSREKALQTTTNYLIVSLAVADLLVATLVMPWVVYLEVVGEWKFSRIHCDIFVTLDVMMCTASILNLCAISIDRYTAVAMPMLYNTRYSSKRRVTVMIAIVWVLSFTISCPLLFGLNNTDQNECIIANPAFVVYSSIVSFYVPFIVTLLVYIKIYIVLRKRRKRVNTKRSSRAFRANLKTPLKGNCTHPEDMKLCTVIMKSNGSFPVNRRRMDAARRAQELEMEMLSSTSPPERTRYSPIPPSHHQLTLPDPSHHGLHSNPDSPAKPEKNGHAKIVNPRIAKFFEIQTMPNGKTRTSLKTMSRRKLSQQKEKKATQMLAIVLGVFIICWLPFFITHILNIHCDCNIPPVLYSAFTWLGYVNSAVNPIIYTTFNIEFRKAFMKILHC
property-measured: pKd
In textbook form, pKd equals minus log to base ten of the concentration in mol/L.

Task: Could you tell me which pKd is on file for CN(C)CCc1c[nH]c2ccc(C[C@H]3COC(=O)N3)cc12 ?
Output: 10.40

----------
biological target: 5-hydroxytryptamine receptor 1D (Homo sapiens) (UniProt P28221); assay: The compound was tested for binding affinity against 5-HT1D receptor; conditions: Oryctolagus cuniculus
property-measured: p[A50]
Lab note: record just the number, no unit beside it.

compound: CN(C)CCc1c[nH]c2ccc(CCC3NC(=O)N(Cc4ccccc4)C3=O)cc12 (stereo not given)
p[A50]: 6.3
--
compound: CC(=O)Nc1ccc(CN2C(=O)NC(Cc3ccc4[nH]cc(CCN)c4c3)C2=O)cc1 (stereo not given)
p[A50]: 5.8

Task: Param item = O=C1NCN(c2ccccc2)C12CCN(CC1COc3ccccc3O1)CC2 (stereo not given) ; retrieve measured p[A50].
Output: 5.1

Task: Please report the recorded p[A50] for NCCc1c[nH]c2ccc(CC3NC(=O)N(Cc4ccc(C(=O)Nc5ccccc5)cc4)C3=O)cc12 (stereo not given) .
Output: 5.9

Task: Endpoint output: p[A50] of NCCc1c[nH]c2ccccc12 . Value?
Output: 6.9

----------
A collection of compounds and their measured p[A50]
target: 5-hydroxytryptamine receptor 1D (Homo sapiens) (UniProt P28221); experiment: The compound was tested for binding affinity against 5-HT1D receptor; details: Oryctolagus cuniculus
Reply briefly: the number, and no unit.

Examples with answers:
compound: O=C1CC2(CCCC2)CC(=O)N1CCCCN1CCN(c2ncccn2)CC1
system-tested: 5-hydroxytryptamine receptor 1D (Homo sapiens) (UniProt P28221)
p[A50]: 4.5
--
compound: CN(C)CCc1c[nH]c2ccc(CCN3C(=O)CNC3=O)cc12
system-tested: 5-hydroxytryptamine receptor 1D (Homo sapiens) (UniProt P28221)
p[A50]: 6.1

Task: Please provide the recorded p[A50] for Cc1ccc2[nH]cc(CCN)c2c1 , tested on 5-hydroxytryptamine receptor 1D (Homo sapiens) (UniProt P28221).
Output: 6.1

Task: Param readout= p[A50]; system= 5-hydroxytryptamine receptor 1D (Homo sapiens) (UniProt P28221); entry= Cn1c(Cc2ccc3[nH]cc(CCN)c3c2)cn(Cc2ccccc2)c1=O ; returns value.
Output: 7.1

Task: Please tell me: p[A50] of CN(C)CCc1c[nH]c2ccc(CC3NC(=O)N(CCc4ccccc4)C3=O)cc12 (stereo not given) , system 5-hydroxytryptamine receptor 1D (Homo sapiens) (UniProt P28221)?
Output: 6

Task: Lab note: need p[A50] for NCCc1c[nH]c2ccc(CC3NC(=O)N(Cc4ccc(-c5ccccc5)cc4)C3=O)cc12 (stereo not given) on 5-hydroxytryptamine receptor 1D (Homo sapiens) (UniProt P28221), anyone have it?
Output: 6.7

Task: So what p[A50] did CN(C)CCc1c[nH]c2ccc(C[C@H]3COC(=O)N3)cc12 get with 5-hydroxytryptamine receptor 1D (Homo sapiens) (UniProt P28221)?
Output: 6.8

----------
biological target: UniProt:P28221; experiment: The compound was tested for binding affinity against 5-HT1D receptor; settings: Oryctolagus cuniculus
Recorded p[A50] by entry
Just the number.

compound: CNCCc1c[nH]c2ccc(CCN3C(=O)NC(Cc4cccc(NC(C)=O)c4)C3=O)cc12 (configuration not stated)
p[A50]: 6.9
--
compound: CS(=O)(=O)Nc1ccc(C[C@H]2NC(=O)N(CCc3ccc4[nH]cc(CCN)c4c3)C2=O)cc1
p[A50]: 7.1

Task: Which measured p[A50] value corresponds to CCCNC(=O)c1cccc(CN2C(=O)NC(Cc3ccc4[nH]cc(CCN)c4c3)C2=O)c1 (configuration not stated) ?
Output: 6.8

Task: Using the record for CC(=O)Nc1cccc(CC2NC(=O)N(CCc3ccc4[nH]cc(CCN(C)C)c4c3)C2=O)c1 (configuration not stated) , report its p[A50].
Output: 7.2

Task: Value lookup for p[A50]; key = COc1ccc2[nH]cc(C3=CCNCC3)c2c1
Output: 7.1

Task: Quick one: p[A50] of CN1C(=O)NC[C@@H]1Cc1ccc2[nH]cc(CCN)c2c1 ?
Output: 6.9

Task: Please report the recorded p[A50] for CC(=O)Nc1cccc(CC2NC(=O)N(CCc3ccc4[nH]cc(CCN)c4c3)C2=O)c1 (configuration not stated) .
Output: 7
